src = patent US11203587B2

Property: THRβ-Selectivity; scope: individual molecules
- Target or system: THR beta-LBD (Homo sapiens)
- Construct: THR alpha-LBD (0.4 nM final concentration) or THR beta-LBD (1.0 nM final concentration) was added; purchased ThermoFisher
- Sequence (P10828 217-461 limits assumed): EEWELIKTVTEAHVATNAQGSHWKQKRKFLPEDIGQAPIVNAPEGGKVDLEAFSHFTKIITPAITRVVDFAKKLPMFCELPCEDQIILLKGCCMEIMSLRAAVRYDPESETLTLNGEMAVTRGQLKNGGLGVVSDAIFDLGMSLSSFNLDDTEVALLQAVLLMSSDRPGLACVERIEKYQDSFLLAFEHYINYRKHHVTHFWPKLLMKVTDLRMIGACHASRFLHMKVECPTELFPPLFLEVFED
- Method: LanthaScreen TR-FRET Thyroid Receptor beta Coactivator Assay
- Type: biochemical
- Applied conditions: THR beta over THR alpha; derived from T3-selectivity normalized data
Answer as a number with no unit attached.

Solved cases below.
CC(C)c1cc(Oc2c(Cl)cc(-c3nn(CC#N)c(=O)[nH]c3=O)cc2Cl)n[nH]c1=O: 12.9
CC(O)c1cc(Oc2c(Cl)cc(-c3nn(C)c(=O)[nH]c3=O)cc2Cl)n[nH]c1=O (stereo not drawn): 14.4
CC(=O)c1cc(Oc2c(Cl)cc(-c3n[nH]c(=O)[nH]c3=O)cc2Cl)nn(C)c1=O: 10.6
CC(C)c1cc(C(=O)c2c(Cl)cc(-c3n[nH]c(=O)[nH]c3=O)cc2Cl)n[nH]c1=O: 9.5

Which THRβ-Selectivity is listed for CC(C)c1cc(Oc2c(Cl)cc(-c3n[nH]c(=O)[nH]c3=O)cc2Cl)nn(C)c1=O ?
17

Follow-up item: CC(CO)c1cc(Oc2c(Cl)cc(-c3nn(C)c(=O)[nH]c3=O)cc2Cl)n[nH]c1=O (stereo not drawn)
7.105

Follow-up item: CC(C)c1cc(Oc2c(Cl)cc(-c3nn(C)c(=O)[nH]c3=O)cc2Cl)nn(C)c1=O
25.5

Follow-up item: CCC(C)c1cc(Oc2c(Cl)cc(-c3nn(C)c(=O)[nH]c3=O)cc2Cl)n[nH]c1=O (stereo not drawn)
20.9

Follow-up item: CC(C)c1cc(Oc2c(Cl)cc(-c3nn(C)c(=O)[nH]c3=O)cc2Cl)n[nH]c1=O
69.8

Follow-up item: Cc1c(-c2n[nH]c(=O)[nH]c2=O)cc(Cl)c(Oc2cc(C(C)C)c(=O)n(C)n2)c1Cl
2.3

Follow-up item: CC(C)c1cc(Oc2c(Cl)cc(-c3n[nH]c(=O)[nH]c3=O)c(F)c2Cl)nn(C)c1=O
4.4
